Tested On: PKB (h) (Homo sapiens, UniProt P31749)
Sequence (P31749 whole entry): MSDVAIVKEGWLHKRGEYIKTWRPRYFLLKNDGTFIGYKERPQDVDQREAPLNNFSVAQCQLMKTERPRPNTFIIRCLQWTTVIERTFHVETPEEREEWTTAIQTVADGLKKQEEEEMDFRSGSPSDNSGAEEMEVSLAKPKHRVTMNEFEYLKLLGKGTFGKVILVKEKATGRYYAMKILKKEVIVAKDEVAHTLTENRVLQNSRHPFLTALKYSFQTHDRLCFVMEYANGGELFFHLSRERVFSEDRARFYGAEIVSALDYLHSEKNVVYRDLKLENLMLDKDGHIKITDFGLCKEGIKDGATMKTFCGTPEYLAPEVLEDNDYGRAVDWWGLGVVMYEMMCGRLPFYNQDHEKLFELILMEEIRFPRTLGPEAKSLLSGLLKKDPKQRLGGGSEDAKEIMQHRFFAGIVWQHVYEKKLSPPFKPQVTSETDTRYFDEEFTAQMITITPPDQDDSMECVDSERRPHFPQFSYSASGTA
Experiment Summary: Kinase inhibition assay (33P-ATP, P30 filter, scintillation counting): PKB
Type: biochemical
Stated Conditions: 40 min; 30µM Testsubstanz (100 µM ATP); read-out: Hemmung von Kinasen in % PKB (h)
Record form. Attribute: inhibition at 30 µM. Fill in for each entry.
Give bare numbers, in %.

# count of solved cases: 2
{"Compound": "Nc1ncnc2c1ncn2Cc1ccc(F)cc1 [Verbd. 42a, 9-(4-Fluoro-benzyl)-9H-purin-6-ylamin]", "Tested On": "PKB (h) (Homo sapiens, UniProt P31749)", "inhibition at 30 µM / %": 0}
{"Compound": "Fc1ccc(CSc2ncnc3[nH]cnc23)cc1", "Tested On": "PKB (h) (Homo sapiens, UniProt P31749)", "inhibition at 30 µM / %": 6}

Provide each entry's inhibition at 30 µM from the list below.
1. c1ccc(Sc2ncnc3[nH]ccc23)cc1
2. Fc1ccc(Nc2ncnc3[nH]cnc23)cc1
3. c1ccc(Cn2cnc3c(Sc4ccccc4)ncnc32)cc1
4. Fc1ccc(Sc2ncnc3c2ncn3Cc2ccccc2)cc1
5. Cn1c(-c2ccccc2)nc2c(Sc3ccc(F)cc3)ncnc21
6. Fc1ccc(Sc2ncnc3[nH]ccc23)cc1

[0, 18, 1, 1, 29, 0]

* * *

Record form. Attribute: inhibition at 30 µM. Fill in for each entry.
Tested On: UniProt Q02750
Sequence (Q02750 whole entry): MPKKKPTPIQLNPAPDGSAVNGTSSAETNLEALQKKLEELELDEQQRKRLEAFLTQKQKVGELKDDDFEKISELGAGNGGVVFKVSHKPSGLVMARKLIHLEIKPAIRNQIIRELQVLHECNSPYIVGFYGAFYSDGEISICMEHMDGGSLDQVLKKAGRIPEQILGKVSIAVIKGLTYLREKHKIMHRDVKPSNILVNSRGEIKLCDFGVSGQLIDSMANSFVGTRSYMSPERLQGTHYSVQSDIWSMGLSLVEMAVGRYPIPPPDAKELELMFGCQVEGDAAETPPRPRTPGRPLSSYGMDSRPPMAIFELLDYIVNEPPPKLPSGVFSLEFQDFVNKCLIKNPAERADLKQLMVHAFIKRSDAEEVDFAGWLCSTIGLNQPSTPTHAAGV
Experiment Summary: Kinase inhibition assay: MEK1 (coupled to MAPK2 assay)
Assay type: biochemical
Stated Conditions: 30µM Testsubstanz (100 µM ATP); read-out: Hemmung von Kinasen in % MEK1 (h)
Give bare numbers, in %.

# count of solved cases: 3
{"Chemical Smiles": "Fc1ccc(CSc2ncnc3[nH]cnc23)cc1", "inhibition at 30 µM [%]": 0}
{"Chemical Smiles": "Fc1ccc(Sc2ncnc3[nH]cnc23)cc1", "inhibition at 30 µM [%]": 2}
{"Chemical Smiles": "c1ccc(Cn2cnc3c(Sc4ccccc4)ncnc32)cc1", "inhibition at 30 µM [%]": 6}

Next molecule, inhibition at 30 µM to be filled in.
Identify measured inhibition at 30 µM associated with `Cn1c(-c2ccccc2)nc2c(-c3ccc(F)cc3)ncnc21`
5

* * *

Tested On: MAPK1 (h) (Homo sapiens, UniProt P27361)
Sequence (P27361 whole entry): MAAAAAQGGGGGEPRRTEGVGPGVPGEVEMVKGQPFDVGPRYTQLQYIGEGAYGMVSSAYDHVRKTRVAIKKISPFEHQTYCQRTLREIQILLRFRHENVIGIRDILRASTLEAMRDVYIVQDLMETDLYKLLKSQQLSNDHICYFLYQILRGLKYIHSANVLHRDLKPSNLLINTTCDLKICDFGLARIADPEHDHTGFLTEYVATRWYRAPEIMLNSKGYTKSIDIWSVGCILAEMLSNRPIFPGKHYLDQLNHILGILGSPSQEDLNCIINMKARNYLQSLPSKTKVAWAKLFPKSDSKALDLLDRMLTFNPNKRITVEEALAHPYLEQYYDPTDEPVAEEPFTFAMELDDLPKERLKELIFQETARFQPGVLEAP
Experiment Summary: Kinase inhibition assay: MAPK1
Type: biochemical
Stated Conditions: 30µM Testsubstanz (100 µM ATP); read-out: Hemmung von Kinasen in % MAPK1 (h)
Record form. Attribute: inhibition at 30 µM. Fill in for each entry.

{"Compound": "Cn1cnc2c(Nc3ccc(F)cc3)ncnc21", "inhibition at 30 µM": "36%"}
{"Compound": "Fc1ccc(Sc2ncnc3c2ncn3Cc2ccccc2)cc1", "inhibition at 30 µM": "0%"}
{"Compound": "Fc1ccc(CSc2ncnc3[nH]cnc23)cc1", "inhibition at 30 µM": "9%"}
{"Compound": "c1ccc(Cn2cnc3c(Sc4ccccc4)ncnc32)cc1", "inhibition at 30 µM": "0%"}
{"Compound": "Cn1c(-c2ccc([S+](C)[O-])cc2)nc2c(Sc3ccccc3)ncnc21 (stereo not drawn)", "inhibition at 30 µM": "0%"}

Provide each entry's inhibition at 30 µM from the list below.
1. COc1ncnc2ncn(Cc3ccc(F)cc3)c12
2. C(=Cc1ncnc2[nH]cnc12)c1ccccc1

1. 19%
2. 50%

Provide each entry's inhibition at 30 µM from the list below.
1. Fc1ccc(Nc2ncnc3[nH]cnc23)cc1
2. Cn1c(-c2ccccc2)nc2c(Sc3ccc(F)cc3)ncnc21

1. 33%
2. 11%

Provide each entry's inhibition at 30 µM from the list below.
1. Cn1cnc2c(Sc3ccc(F)cc3)ncnc21
2. Fc1ccc(Sc2ncnc3[nH]ccc23)cc1

9%
10%

Provide each entry's inhibition at 30 µM from the list below.
1. Cn1c(-c2ccccc2)nc2c(-c3ccc(F)cc3)ncnc21
2. Cn1c(C#CCCO)nc2c(Sc3ccccc3)ncnc21
3. Fc1ccc(Sc2ncnc3[nH]cnc23)cc1
4. Fc1ccc(Cn2cnc3c(Sc4ccc(F)cc4)ncnc32)cc1
5. Cn1cnc2c(Nc3ccccc3)ncnc21
6. c1ccc(Sc2ncnc3[nH]ccc23)cc1
7. Fc1ccc(Cn2cnc3c(Sc4ccccc4)ncnc32)cc1

1: 20%; 2: 0%; 3: 2%; 4: 6%; 5: 16%; 6: 11%; 7: 17%
